Test system: endothelial tube formation in co-cultures of ECFCs and ADSCs treated with VEGF
method_summary: cells
Format: cell-based, human
readout: VEGF_ADSC\ECFC Angio CD31 TubeArea IC50/EC50

[[record]]
molecule = "CCCCCCCCCCCCCCCCCC[N+](C)(C)CCC[Si](OC)(OC)OC.[Cl-]"
target_of_assay = "endothelial tube formation in co-cultures of ECFCs and ADSCs treated with VEGF"
result_value = "> 10 µM"

[[record]]
molecule = "CC(=O)Oc1ccccc1C(=O)Nc1ncc([N+](=O)[O-])s1"
target_of_assay = "endothelial tube formation in co-cultures of ECFCs and ADSCs treated with VEGF"
result_value = "2.0612 µM"

[[record]]
molecule = "CC[C@@H]1C(=O)OC[C@@H]1Cc1cncn1C"
target_of_assay = "endothelial tube formation in co-cultures of ECFCs and ADSCs treated with VEGF"
result_value = "> 10 µM"

[[record]]
molecule = "Cl.NC1=NCC2c3ccccc3Cc3ccccc3N12 (stereo not shown)"
target_of_assay = "endothelial tube formation in co-cultures of ECFCs and ADSCs treated with VEGF"
result_value = "> 10 µM"

[[record]]
molecule = "OCCN1CCN(CCCN2c3ccccc3Sc3ccc(C(F)(F)F)cc32)CC1"
target_of_assay = "endothelial tube formation in co-cultures of ECFCs and ADSCs treated with VEGF"
result_value = "> 10 µM"

[[record]]
molecule = "CC(C)C[C@H](NC(=O)[C@H](CCc1ccccc1)NC(=O)CN1CCOCC1)C(=O)N[C@@H](Cc1ccccc1)C(=O)N[C@@H](CC(C)C)C(=O)[C@@]1(C)CO1"
target_of_assay = "endothelial tube formation in co-cultures of ECFCs and ADSCs treated with VEGF"
result_value = "0.0204 µM"

[[record]]
molecule = "CC[C@]1(O)CC[C@H]2[C@@H]3CCC4=CCCC[C@@H]4[C@H]3CC[C@@]21C"
target_of_assay = "endothelial tube formation in co-cultures of ECFCs and ADSCs treated with VEGF"
result_value = "6.2451 µM"

[[record]]
molecule = "CC(=O)O[C@H]1C[C@H](O[C@H]2[C@@H](O)C[C@H](O[C@@H]3[C@@H](O)C[C@H](O[C@H]4CC[C@@]5(C)[C@H](CC[C@@H]6[C@H]5C[C@@H](O)[C@]5(C)[C@@H](C7=CC(=O)OC7)CC[C@]65O)C4)O[C@@H]3C)O[C@@H]2C)O[C@H](C)[C@H]1O[C@@H]1O[C@H](CO)[C@@H](O)[C@H](O)[C@@H]1O"
target_of_assay = "endothelial tube formation in co-cultures of ECFCs and ADSCs treated with VEGF"
result_value = "0.0702 µM"

[[record]]
molecule = "CCCCCCCC(=O)OCC(COC(=O)CCCCCCC)OC(=O)CCCCCCC"
target_of_assay = "endothelial tube formation in co-cultures of ECFCs and ADSCs treated with VEGF"
result_value = "> 10 µM"

[[record]]
molecule = "O=C(Nc1ccc(S(=O)(=O)N2CCOCC2)cc1)c1cc(Cl)ccc1NS(=O)(=O)c1ccc(Cl)s1"
target_of_assay = "endothelial tube formation in co-cultures of ECFCs and ADSCs treated with VEGF"
result_value = "> 10 µM"

[[record]]
molecule = "COCc1c(C(C)C)nc(C(C)C)c(/C=C/[C@@H](O)C[C@@H](O)CC(=O)[O-])c1-c1ccc(F)cc1.[Na+]"
target_of_assay = "endothelial tube formation in co-cultures of ECFCs and ADSCs treated with VEGF"
result_value = "0.0894 µM"

[[record]]
molecule = "CCOC(=O)/C=C(C)/C=C/C[C@@H](C)CCCC(C)C"
target_of_assay = "endothelial tube formation in co-cultures of ECFCs and ADSCs treated with VEGF"
result_value = "> 10 µM"

[[record]]
molecule = "CC(=O)N(CC(O)CN(C(C)=O)c1c(I)c(C(=O)NCC(O)CO)c(I)c(C(=O)NCC(O)CO)c1I)c1c(I)c(C(=O)NCC(O)CO)c(I)c(C(=O)NCC(O)CO)c1I (stereo not shown)"
target_of_assay = "endothelial tube formation in co-cultures of ECFCs and ADSCs treated with VEGF"
result_value = "> 10 µM"

[[record]]
molecule = "CN1CCN(c2cc3c(nn2)Oc2ccccc2N3C)CC1"
target_of_assay = "endothelial tube formation in co-cultures of ECFCs and ADSCs treated with VEGF"
result_value = "> 10 µM"

[[record]]
molecule = "CCN1CCC[C@H]1CNC(=O)c1c(OC)ccc(Br)c1OC"
target_of_assay = "endothelial tube formation in co-cultures of ECFCs and ADSCs treated with VEGF"
result_value = "> 10 µM"

[[record]]
molecule = "CCC1Nc2cc(Cl)c(S(N)(=O)=O)cc2S(=O)(=O)N1 (stereo not shown)"
target_of_assay = "endothelial tube formation in co-cultures of ECFCs and ADSCs treated with VEGF"
result_value = "> 10 µM"


---

Test system: HCT116 cells treated with a GSK3β inhibitor
method_summary: cells
Assay type: cell-based
measurement_setup: assay number 26; GSK3b inhibitor pretreated
Items are presented alongside their recorded GSK3b inh pretreated_Viability ATP HCT116 IC50/EC50.
readout: GSK3b inh pretreated_Viability ATP HCT116 IC50/EC50

[[record]]
molecule = "CN1CCN(C2Cc3ccccc3Sc3ccc(Cl)cc32)CC1.O=C(O)/C=C\\C(=O)O (centres unmarked)"
result_value = "8.3951 µM"

[[record]]
molecule = "Nc1nc(Cl)nc2c1ncn2[C@@H]1O[C@H](CO)[C@@H](O)[C@@H]1F"
result_value = "0.001 µM"

[[record]]
molecule = "CCCCCCCCCCCCCC[N+](C)(C)C.[Br-]"
result_value = "0.754 µM"

[[record]]
molecule = "O=[N+]([O-])c1cccc(S(=O)(=O)NCCNS(=O)(=O)c2cccc([N+](=O)[O-])c2)c1"
result_value = "> 20 µM"

[[record]]
molecule = "O=C1NCN(c2ccccc2)C12CCN(CCCOc1ccc(F)cc1)CC2"
result_value = "5.333 µM"

[[record]]
molecule = "COCc1c(C(C)C)nc(C(C)C)c(/C=C/[C@@H](O)C[C@@H](O)CC(=O)[O-])c1-c1ccc(F)cc1.[Na+]"
result_value = "0.05291 µM"

[[record]]
molecule = "CC(CC=O)CCCC(C)(C)O (centres unmarked)"
result_value = "> 20 µM"

[[record]]
molecule = "Cl.NC1=NCC2c3ccccc3Cc3ccccc3N12 (centres unmarked)"
result_value = "> 20 µM"


---

Test system: DLD-1
method_summary: cells
Type: cell-based
measurement_setup: read-out: Basal_Viability ATP DLD-1
Structures can show the parent of a compound that is named as a salt.
Items are presented alongside their recorded IC50.
readout: IC50 (µM)

[[record]]
compound = "CC(C)=CCC/C(C)=C/CC/C(C)=C/C(=O)OCC(=O)[C@@]1(O)CC[C@H]2[C@@H]3CCC4=CC(=O)C=C[C@]4(C)[C@H]3[C@@H](O)C[C@@]21C [prednisolone farnesil]"
readout = "IC50"
reading_unit = "µM"
operator_symbol = "="
result_value = 7.93

[[record]]
compound = "CC(=O)Oc1ccc(C2(c3ccc(OC(C)=O)cc3)Oc3ccccc3NC2=O)cc1 [Bisoxatin diacetate]"
readout = "IC50"
reading_unit = "µM"
operator_symbol = "="
result_value = 19.7

[[record]]
compound = "Oc1ccc([C@@H]2CNCc3c2ccc(O)c3O)cc1O [Zelandopam]"
readout = "IC50"
reading_unit = "µM"
operator_symbol = ">"
result_value = 20

[[record]]
compound = "Oc1ccc2[nH]cc(CCCCN3CC=C(c4ccccc4)CC3)c2c1 [Roxindole hydrochloride]"
readout = "IC50"
reading_unit = "µM"
operator_symbol = "="
result_value = 4.54

[[record]]
compound = "O=C(CCBr)N1CCN(C(=O)CCBr)CC1 [Abbott brand of pipobroman]"
readout = "IC50"
reading_unit = "µM"
operator_symbol = ">"
result_value = 20


---

Items are presented alongside their recorded Basal_Viability ATP DLD-1 IC50/EC50.
Test system: DLD-1
method_summary: cells
Assay type: cell-based
readout: Basal_Viability ATP DLD-1 IC50/EC50 (µM)

[[record]]
compound = "O=C(Nc1ccc(Oc2ccc(Cl)cc2)c(Cl)c1)c1cc(I)cc(I)c1O [NCGC00160556-02]"
readout = "Basal_Viability ATP DLD-1 IC50/EC50"
reading_unit = "µM"
operator_symbol = "="
result_value = 0.0084

[[record]]
compound = "O=C(c1cc(O)c(O)c(O)c1)c1ccc(O)c(O)c1O [NCGC00249050-02]"
readout = "Basal_Viability ATP DLD-1 IC50/EC50"
reading_unit = "µM"
operator_symbol = "="
result_value = 11.8874

[[record]]
compound = "C1CCC(C(CC2CCCCN2)C2CCCCC2)CC1.O=C(O)/C=C\\C(=O)O (stereo not drawn) [NCGC00018261-06]"
readout = "Basal_Viability ATP DLD-1 IC50/EC50"
reading_unit = "µM"
operator_symbol = ">"
result_value = 20

[[record]]
compound = "CCc1oc2ccccc2c1C(=O)c1cc(I)c(O)c(I)c1 [NCGC00160408-03]"
readout = "Basal_Viability ATP DLD-1 IC50/EC50"
reading_unit = "µM"
operator_symbol = "="
result_value = 0.003

[[record]]
compound = "CCc1oc2ccccc2c1C(=O)c1cc(Br)c(O)c(Br)c1 [NCGC00013895-08]"
readout = "Basal_Viability ATP DLD-1 IC50/EC50"
reading_unit = "µM"
operator_symbol = "="
result_value = 0.2675

[[record]]
compound = "CN1CCCC(CC2c3ccccc3Sc3ccccc32)C1.Cl (stereo not drawn) [NCGC00273481-01]"
readout = "Basal_Viability ATP DLD-1 IC50/EC50"
reading_unit = "µM"
operator_symbol = ">"
result_value = 20

[[record]]
compound = "Cc1onc(-c2ccccc2)c1-c1ccc(S(N)(=O)=O)cc1 [NCGC00095129-06]"
readout = "Basal_Viability ATP DLD-1 IC50/EC50"
reading_unit = "µM"
operator_symbol = ">"
result_value = 20

[[record]]
compound = "Cc1c(C)n(Cc2ccccc2)c2ccc(C(=O)OCCN(C)C)cc12 [NCGC00160412-04]"
readout = "Basal_Viability ATP DLD-1 IC50/EC50"
reading_unit = "µM"
operator_symbol = "="
result_value = 11.2721

[[record]]
compound = "C[n+]1cc2c3c(ccc2c2ccc4cc5c(cc4c21)OCO5)OCO3 [NCGC00015959-09]"
readout = "Basal_Viability ATP DLD-1 IC50/EC50"
reading_unit = "µM"
operator_symbol = "="
result_value = 0.5755

